Quick reference: EC50 of the listed items.
Biological target: IP (Homo sapiens)
Sequence (P43119 whole entry): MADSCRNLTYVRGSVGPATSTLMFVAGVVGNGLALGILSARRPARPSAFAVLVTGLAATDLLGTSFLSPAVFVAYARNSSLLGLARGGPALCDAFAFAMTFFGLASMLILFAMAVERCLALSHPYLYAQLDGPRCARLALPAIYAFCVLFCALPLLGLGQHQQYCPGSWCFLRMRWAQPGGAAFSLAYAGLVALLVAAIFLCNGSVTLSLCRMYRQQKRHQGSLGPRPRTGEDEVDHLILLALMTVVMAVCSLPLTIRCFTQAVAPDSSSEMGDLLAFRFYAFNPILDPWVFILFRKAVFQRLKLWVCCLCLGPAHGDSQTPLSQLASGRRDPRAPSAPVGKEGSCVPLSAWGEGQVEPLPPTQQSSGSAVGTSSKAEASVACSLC
Assay: HTRF cAMP assay, recombinant human IP receptor stably expressed in CHO-K1 cells
Type: cell-based
Design: expressed in transfected cells
Details: HTRF (cAMP) human IP receptor assay; mean of at least three determinations
Remember to put the unit after the number in your answer.

Reported EC50 of CC(C)N(CCCCOCC(=O)O)c1cnc(-c2ccccc2)c(-c2ccccc2)n1 : 22 nM

Reported EC50 of O=C(O)COC[C@H]1CC[C@H](COC(=O)N(c2ccccc2)c2ccccc2)CC1 : 21 nM

---

List of Ki tested on UniProt:P43253.
Sequence (P43253 whole entry): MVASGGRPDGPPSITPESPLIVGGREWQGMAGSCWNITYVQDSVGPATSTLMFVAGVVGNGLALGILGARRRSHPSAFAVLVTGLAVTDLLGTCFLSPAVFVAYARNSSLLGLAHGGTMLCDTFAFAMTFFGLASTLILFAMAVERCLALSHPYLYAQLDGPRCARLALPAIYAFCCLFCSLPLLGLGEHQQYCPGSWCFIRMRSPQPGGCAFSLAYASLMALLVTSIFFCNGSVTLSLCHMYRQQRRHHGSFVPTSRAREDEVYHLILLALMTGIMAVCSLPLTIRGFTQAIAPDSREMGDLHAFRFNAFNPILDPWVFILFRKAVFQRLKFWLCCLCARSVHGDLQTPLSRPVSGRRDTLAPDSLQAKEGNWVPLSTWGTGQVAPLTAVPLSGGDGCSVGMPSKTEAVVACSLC

// returns Ki for CC#CCC(C)[C@H](O)/C=C/[C@@H]1[C@H]2C/C(=C/CCCC(=O)O)C[C@H]2C[C@H]1O (stereo partly drawn) with UniProt:P43253; value = 1 nM

// returns Ki for O=C(O)COC[C@H]1CC[C@H](COC(=O)N(c2ccccc2)c2cccc(F)c2)CC1 with UniProt:P43253; value = 51 nM

Shift focus to the following entry.
// returns Ki for O=C(O)COC[C@H]1CC[C@H](COC(=O)N(c2ccccc2)c2ccc(Cl)cc2)CC1 with UniProt:P43253; value = 76 nM
